system-under-test: CYP1A2 (Rattus norvegicus)
Sequence (P04799 whole entry): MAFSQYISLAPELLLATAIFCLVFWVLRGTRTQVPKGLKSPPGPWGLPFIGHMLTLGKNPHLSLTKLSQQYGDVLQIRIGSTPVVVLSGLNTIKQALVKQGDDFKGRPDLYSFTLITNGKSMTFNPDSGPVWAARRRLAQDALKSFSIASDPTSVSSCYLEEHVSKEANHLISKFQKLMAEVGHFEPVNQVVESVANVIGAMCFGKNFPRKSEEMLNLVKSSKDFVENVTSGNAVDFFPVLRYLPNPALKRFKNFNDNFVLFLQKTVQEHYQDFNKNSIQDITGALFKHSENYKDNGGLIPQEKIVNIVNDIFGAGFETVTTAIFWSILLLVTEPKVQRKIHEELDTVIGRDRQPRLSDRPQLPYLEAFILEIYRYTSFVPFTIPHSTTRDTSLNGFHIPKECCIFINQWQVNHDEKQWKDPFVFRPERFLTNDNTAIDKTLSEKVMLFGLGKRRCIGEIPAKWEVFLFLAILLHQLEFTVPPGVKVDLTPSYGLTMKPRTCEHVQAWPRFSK
measurement-description: In vitro cocktail CYP450 activity assay in rat liver microsomes, CYP1A2 (phenacetin probe)
reported-conditions: read-out: IC50 CYP1A2; single components; RLM 0.2 mg/mL, 15 min, triplicate, mean ± SD
pIC50: −log10 of the molar value.

compound: O=c1c(O[C@@H]2O[C@H](CO)[C@@H](O)[C@H](O)[C@H]2O[C@@H]2O[C@H](CO)[C@@H](O)[C@H](O)[C@H]2O)c(-c2ccc(O)cc2)oc2cc(O)cc(O)c12 [A14, kaempferol-3-O-sophoroside]
rel: <
pIC50: 3.70
--
compound: O=c1c(O[C@@H]2O[C@H](CO)[C@@H](O)[C@H](O)[C@H]2O)c(-c2ccc(O)cc2)oc2cc(O)cc(O)c12 [A7, kaempferol-3-O-glucoside]
rel: =
pIC50: 3.81
